Reported Residual rate of Compound (I) values for the following molecules.
Experiment: Thermal stability test
Assay type: physicochemical
Conditions: Condition (1): closed state, 60° C.; time 1 month
Description: The test compound was placed in a glass bottle and allowed to stand under the following conditions (1) and (2). After a certain period of time had elapsed, the residual rate of the active ingredient [compound (I)] in the test compound was measured by high performance liquid chromatography. (1): Closed state, 60° C.; (2): Non-closed state, 40° C., humidity 75%. […] The residual rate (%) was calculated by the following formula. […]
# value in %; strip the unit string

Study these solved cases before continuing.
>>> reading("CC1=C(C(=O)OC(C)C)C(c2cccc([N+](=O)[O-])c2)C(C(=O)OC2CN(C(c3ccccc3)c3ccccc3)C2)=C(N)N1.CS(=O)(=O)O.CS(=O)(=O)O (stereo not shown) [Example 3]")
98.7
>>> reading("CC1=C(C(=O)OC(C)C)C(c2cccc([N+](=O)[O-])c2)C(C(=O)OC2CN(C(c3ccccc3)c3ccccc3)C2)=C(N)N1.O=C(O)CC(O)(CC(=O)O)C(=O)O (single isomer, unassigned) [Example 2]")
96.9
>>> reading("CC1=C(C(=O)OC(C)C)C(c2cccc([N+](=O)[O-])c2)C(C(=O)OC2CN(C(c3ccccc3)c3ccccc3)C2)=C(N)N1.O=S(=O)(O)O (stereo not shown) [Comparative Example 3, reference compound]")
96.9
>>> reading("Br.Br.CC1=C(C(=O)OC(C)C)C(c2cccc([N+](=O)[O-])c2)C(C(=O)OC2CN(C(c3ccccc3)c3ccccc3)C2)=C(N)N1 (single isomer, unassigned) [Example 1]")
99.7

Problem: Value lookup for Residual rate of Compound (I); key = CC1=C(C(=O)OC(C)C)C(c2cccc([N+](=O)[O-])c2)C(C(=O)OC2CN(C(c3ccccc3)c3ccccc3)C2)=C(N)N1.Cc1ccc(S(=O)(=O)O)cc1.Cc1ccc(S(=O)(=O)O)cc1 (stereo not shown) [Example 6]
Result: 98.8

Problem: Value lookup for Residual rate of Compound (I); key = CC1=C(C(=O)OC(C)C)C(c2cccc([N+](=O)[O-])c2)C(C(=O)OC2CN(C(c3ccccc3)c3ccccc3)C2)=C(N)N1.O=S(=O)(O)c1ccccc1.O=S(=O)(O)c1ccccc1 (stereo not shown) [Example 5]
Result: 98.6

Problem: Value lookup for Residual rate of Compound (I); key = CC1=C(C(=O)OC(C)C)C(c2cccc([N+](=O)[O-])c2)C(C(=O)OC2CN(C(c3ccccc3)c3ccccc3)C2)=C(N)N1.CS(=O)(=O)O.CS(=O)(=O)O.CS(=O)(=O)O (stereo not shown) [Example 4]
Result: 98.6

---

Reported AUC(0-t) values for the following compounds.
Experiment: Absorbability test in dog
Type: in vivo, dog (male beagle)
Settings: fasted male beagle, tetragastrin-treated, oral gelatin capsule 100 mg/body, plasma, read-out: AUC0-24 h
# output: numeric value plus its unit

>>> reading("CC1=C(C(=O)OC(C)C)C(c2cccc([N+](=O)[O-])c2)C(C(=O)OC2CN(C(c3ccccc3)c3ccccc3)C2)=C(N)N1 (centres unmarked) [Compound (I), reference compound]")
"1810 ng·h/mL"

Problem: Value lookup for AUC(0-t); key = Br.Br.CC1=C(C(=O)OC(C)C)C(c2cccc([N+](=O)[O-])c2)C(C(=O)OC2CN(C(c3ccccc3)c3ccccc3)C2)=C(N)N1 (single isomer, unassigned) [Example 1]
Result: 2930 ng·h/mL

---

Assay: Thermal stability test
Assay type: physicochemical
Settings: Condition (1): closed state, 60° C.; time 3 months
Metric: Residual rate of Compound (I)
# output: numeric value plus its unit

Study these solved cases before continuing.
>>> reading("CC1=C(C(=O)OC(C)C)C(c2cccc([N+](=O)[O-])c2)C(C(=O)OC2CN(C(c3ccccc3)c3ccccc3)C2)=C(N)N1.O=C(O)CC(O)(CC(=O)O)C(=O)O (single isomer, unassigned)")
"95.8%"
>>> reading("CC1=C(C(=O)OC(C)C)C(c2cccc([N+](=O)[O-])c2)C(C(=O)OC2CN(C(c3ccccc3)c3ccccc3)C2)=C(N)N1.Cc1ccc(S(=O)(=O)O)cc1.Cc1ccc(S(=O)(=O)O)cc1 (centres unmarked)")
"98.3%"
>>> reading("CC1=C(C(=O)OC(C)C)C(c2cccc([N+](=O)[O-])c2)C(C(=O)OC2CN(C(c3ccccc3)c3ccccc3)C2)=C(N)N1.O=S(=O)(O)O (centres unmarked) [Comparative Example 3, reference compound]")
"94.9%"

Problem: Value lookup for Residual rate of Compound (I); key = CC1=C(C(=O)OC(C)C)C(c2cccc([N+](=O)[O-])c2)C(C(=O)OC2CN(C(c3ccccc3)c3ccccc3)C2)=C(N)N1.Cl.Cl (centres unmarked) [Comparative Example 1, reference compound]
Result: 58.9%

Problem: Value lookup for Residual rate of Compound (I); key = Br.Br.CC1=C(C(=O)OC(C)C)C(c2cccc([N+](=O)[O-])c2)C(C(=O)OC2CN(C(c3ccccc3)c3ccccc3)C2)=C(N)N1 (single isomer, unassigned)
Result: 99.7%

---

Assay: Thermal stability test
Assay type: physicochemical
Details: Condition (2): non-closed state, 40° C., humidity 75%; time 0 month
Reported Residual rate of Compound (I) values for the following compounds.
# value in %; strip the unit string

Study these solved cases before continuing.
>>> reading("CC1=C(C(=O)OC(C)C)C(c2cccc([N+](=O)[O-])c2)C(C(=O)OC2CN(C(c3ccccc3)c3ccccc3)C2)=C(N)N1.CS(=O)(=O)O.CS(=O)(=O)O.CS(=O)(=O)O (stereo not shown)")
99.5
>>> reading("CC1=C(C(=O)OC(C)C)C(c2cccc([N+](=O)[O-])c2)C(C(=O)OC2CN(C(c3ccccc3)c3ccccc3)C2)=C(N)N1.Cc1ccc(S(=O)(=O)O)cc1.Cc1ccc(S(=O)(=O)O)cc1 (stereo not shown)")
99.6
>>> reading("Br.Br.CC1=C(C(=O)OC(C)C)C(c2cccc([N+](=O)[O-])c2)C(C(=O)OC2CN(C(c3ccccc3)c3ccccc3)C2)=C(N)N1 (single isomer, unassigned)")
99.9

Please look at the following compound next.
Problem: Value lookup for Residual rate of Compound (I); key = CC1=C(C(=O)OC(C)C)C(c2cccc([N+](=O)[O-])c2)C(C(=O)OC2CN(C(c3ccccc3)c3ccccc3)C2)=C(N)N1.O=S(=O)(O)O (stereo not shown) [Comparative Example 3, reference compound]
Result: 99.5

---

Assay: Thermal stability test
Type: physicochemical
Conditions: Condition (2): non-closed state, 40° C., humidity 75%; time 3 months
Metric: Residual rate of Compound (I) (%)
# value in %; strip the unit string

Problem: Value lookup for Residual rate of Compound (I); key = CC1=C(C(=O)OC(C)C)C(c2cccc([N+](=O)[O-])c2)C(C(=O)OC2CN(C(c3ccccc3)c3ccccc3)C2)=C(N)N1.Cl.Cl (centres unmarked) [Comparative Example 1, reference compound]
Result: 59.0

Problem: Value lookup for Residual rate of Compound (I); key = Br.Br.CC1=C(C(=O)OC(C)C)C(c2cccc([N+](=O)[O-])c2)C(C(=O)OC2CN(C(c3ccccc3)c3ccccc3)C2)=C(N)N1 (single isomer, unassigned) [Example 1]
Result: 99.1

Problem: Value lookup for Residual rate of Compound (I); key = CC1=C(C(=O)OC(C)C)C(c2cccc([N+](=O)[O-])c2)C(C(=O)OC2CN(C(c3ccccc3)c3ccccc3)C2)=C(N)N1.CS(=O)(=O)O.CS(=O)(=O)O.CS(=O)(=O)O (centres unmarked) [Example 4]
Result: 98.8

Problem: Value lookup for Residual rate of Compound (I); key = CC1=C(C(=O)OC(C)C)C(c2cccc([N+](=O)[O-])c2)C(C(=O)OC2CN(C(c3ccccc3)c3ccccc3)C2)=C(N)N1.Cc1ccc(S(=O)(=O)O)cc1.Cc1ccc(S(=O)(=O)O)cc1 (centres unmarked) [Example 6]
Result: 96.4

Problem: Value lookup for Residual rate of Compound (I); key = CC1=C(C(=O)OC(C)C)C(c2cccc([N+](=O)[O-])c2)C(C(=O)OC2CN(C(c3ccccc3)c3ccccc3)C2)=C(N)N1.O=S(=O)(O)O (centres unmarked) [Comparative Example 3, reference compound]
Result: 88.9

---

Assay: Thermal stability test
Type: physicochemical
Conditions: Condition (1): closed state, 60° C.; time 3 months
Description: The test compound was placed in a glass bottle and allowed to stand under the following conditions (1) and (2). After a certain period of time had elapsed, the residual rate of the active ingredient [compound (I)] in the test compound was measured by high performance liquid chromatography. (1): Closed state, 60° C.; (2): Non-closed state, 40° C., humidity 75%. […] The residual rate (%) was calculated by the following formula. […]
Reported Residual rate of Compound (I) values for the following compounds.
# value in %; strip the unit string

>>> reading("CC1=C(C(=O)OC(C)C)C(c2cccc([N+](=O)[O-])c2)C(C(=O)OC2CN(C(c3ccccc3)c3ccccc3)C2)=C(N)N1.O=S(=O)(O)c1ccccc1.O=S(=O)(O)c1ccccc1 (stereo not drawn)")
96.5
>>> reading("CC1=C(C(=O)OC(C)C)C(c2cccc([N+](=O)[O-])c2)C(C(=O)OC2CN(C(c3ccccc3)c3ccccc3)C2)=C(N)N1.CS(=O)(=O)O.CS(=O)(=O)O (stereo not drawn)")
98.5

Please look at the following compound next.
Problem: Value lookup for Residual rate of Compound (I); key = CC1=C(C(=O)OC(C)C)C(c2cccc([N+](=O)[O-])c2)C(C(=O)OC2CN(C(c3ccccc3)c3ccccc3)C2)=C(N)N1.CS(=O)(=O)O.CS(=O)(=O)O.CS(=O)(=O)O (stereo not drawn)
Result: 98.1
